# target.desc: T1, ZIKV (prM80E) with a C-terminal myc-myc-hexahistidine tag (Zika virus, UniProt A0A024B7W1 104-694)
# T1 construct: also called ZIKV (prM80E)-mmH; ZIKV-mmH
# assay.protocol: SPR, mAb captured, 37C, pH 5.5 chase
Provide the reported t½ of each item.
One number for each entry, in min.

// below: answered binders
binder: H4H25592P (antibody, V domains shown) VH: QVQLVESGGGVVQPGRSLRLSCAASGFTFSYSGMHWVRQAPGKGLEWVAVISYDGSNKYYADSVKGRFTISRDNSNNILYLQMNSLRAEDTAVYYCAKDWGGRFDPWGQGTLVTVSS VL: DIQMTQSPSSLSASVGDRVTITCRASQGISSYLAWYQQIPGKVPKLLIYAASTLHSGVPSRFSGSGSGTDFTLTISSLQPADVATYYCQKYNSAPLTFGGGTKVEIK
unit.spec: min
t½: 1.57
--
binder: H4H25587P (antibody, V domains shown) VH: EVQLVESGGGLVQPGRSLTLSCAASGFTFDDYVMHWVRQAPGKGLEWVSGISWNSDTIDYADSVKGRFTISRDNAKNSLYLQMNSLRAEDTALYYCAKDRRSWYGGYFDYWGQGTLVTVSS VL: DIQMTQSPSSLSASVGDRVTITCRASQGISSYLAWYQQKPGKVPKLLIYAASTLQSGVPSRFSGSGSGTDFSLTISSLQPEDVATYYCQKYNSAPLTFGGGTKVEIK
unit.spec: min
t½: 0.66
--
binder: H4H25704N (antibody, V domains shown) VH: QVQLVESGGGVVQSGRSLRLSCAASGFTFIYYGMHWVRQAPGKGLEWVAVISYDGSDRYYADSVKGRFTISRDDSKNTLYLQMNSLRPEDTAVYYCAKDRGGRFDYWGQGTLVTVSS VL: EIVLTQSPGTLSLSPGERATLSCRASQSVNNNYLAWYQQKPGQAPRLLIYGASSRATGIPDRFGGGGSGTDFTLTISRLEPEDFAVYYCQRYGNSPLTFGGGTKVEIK
unit.spec: min
t½: 10.8

stdin: What t½ value was documented for this binder, H4H25641P (antibody, V domains shown) VH: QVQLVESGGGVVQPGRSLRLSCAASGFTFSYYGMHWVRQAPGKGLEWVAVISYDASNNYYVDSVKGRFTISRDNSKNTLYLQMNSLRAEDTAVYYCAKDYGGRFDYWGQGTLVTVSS VL: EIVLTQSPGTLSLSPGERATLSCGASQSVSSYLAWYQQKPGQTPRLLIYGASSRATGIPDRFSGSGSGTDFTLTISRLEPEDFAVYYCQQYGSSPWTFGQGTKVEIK ?
stdout: 0.57
